Reference for the values: PubChem BioAssay (NCATS)

- Test system: Zika virus NS2B-NS3 protease (linked construct)
- experimental_details: 384 well plate NINDS Rhodamine confirmatory qHTS for Zika virus inhibitors (AID 1347164);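 note: fluorescence from protease cleavage of Ac-LKRR-rhodamine 110 substrate; nearly all actives have a fitted effect of over 65% in size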
- recorded_conditions: rhodamine-110 peptide substrate fluorescence; series mostly up to 1 mM
Records with an inconclusive call do not appear. Activity calls are given as the source filed them. Calls come from the whole dose curve; as a rule, active = well fitted inhibition curve with a large enough effect; inconclusive = small, poorly fitted or top-dose-only effect; inactive = no such curve, though single readings can be large or run the other way.
Your response should consist of one outcome taken from active, inactive

Worked set:
{"compound": "O=c1cc(-c2ccc(O)c(O)c2)oc2cc(O)cc(O)c12", "label_class": "inactive"}
{"compound": "N#CC(c1ccc(Cl)cc1)c1c(Cl)cc(-n2ncc(=O)[nH]c2=O)cc1Cl (stereo not given)", "label_class": "active"}
{"compound": "O=C(O)Cc1cccc(OCCCN(Cc2cccc(C(F)(F)F)c2Cl)CC(c2ccccc2)c2ccccc2)c1", "label_class": "active"}
{"compound": "N#CC1(c2cccc(C(=O)Nc3cc(Oc4ccc5nc(NC(=O)C6CC6)sc5n4)ccc3F)c2Cl)CC1", "label_class": "active"}

Problem: Short answer needed: outcome of this test for CN(C)CC[C@H](CSc1ccccc1)Nc1ccc(S(=O)(=O)NC(=O)c2ccc(N3CCN(Cc4ccccc4-c4ccc(Cl)cc4)CC3)cc2)cc1[N+](=O)[O-] ?
Result: active
